experiment-summary: chemical genetic growth profiling, strain panel (AID 1159580);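 also: tested at 20 µM; growth read once vehicle control cultures reached saturation at 30 °C; 1 = growth at the plate median or of vehicle wells; lower values mean less growth of the strain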
experimental-setup: S. cerevisiae deletion strains, growth OD, locus YMR263W, strain SAP30, hits give low values
Hit rate of the full screen: of about 5,500 compounds, about 2,000 (36%) were called active. Inconclusive results (about 18%) are left out. The list shows a part of the results.
The entries below are paired with their reported normalized growth.
Give the value as a plain number.

Short answer for `COc1c(C(=O)O)ccc2c1CCC(C)(C)O2` : normalized growth was 1.01

Short answer for `CC/C(=N/Oc1ccc(C(F)(F)F)cn1)c1ccc(-c2ccccc2F)cc1` : normalized growth was 0.996

Short answer for `COC(=O)c1ccc(-c2ccccc2F)cc1` : normalized growth was 0.971

---

experiment-summary: chemical genetic growth profiling, strain panel (AID 1159580)
experimental-setup: S. cerevisiae deletion strains, growth OD, locus YLR342W, strain FKS1 (second series), hits give low values
Out of some 5,500 compounds screened, about 2,000 (36%) were called active. Inconclusive results (about 18%) are left out. The list shows a part of the results.
observed-property: normalized growth

Observe how each entry below is paired with its result.
>  <compound>
C/C=C/c1ccc(OC)cc1

>  <normalized growth>
0.986 (inactive)

$$$$
>  <compound>
CC(COc1ccccc1)N(CCCl)Cc1ccccc1 (stereo unspecified)

>  <normalized growth>
0.974 (inactive)

$$$$
>  <compound>
c1ccc2[nH]c(-c3cscn3)nc2c1

>  <normalized growth>
1.01 (inactive)

$$$$
>  <compound>
O=C(O)CCC(=O)c1ccc(-c2ccccc2)cc1

>  <normalized growth>
0.986 (inactive)

$$$$
>  <compound>
O=C(O)CCCCC1SCC2NC(=O)NC21 (stereo unspecified)

>  <normalized growth>
1 (inactive)

$$$$

Could you now look at the following compound, please?
Short answer for `CCOc1ccc2c(c1)C(C)=CC(C)(C)N2` : normalized growth was 0.999 (inactive)

---

experiment-summary: chemical genetic growth profiling, strain panel (AID 1159580)
experimental-setup: S. cerevisiae deletion strains, growth OD, locus YKR091W, strain srl3, hits give low values
The campaign covered roughly 5,500 compounds. About 2,000 (36%) were called active. Roughly 18% stayed inconclusive and do not appear here. Some of the results follow.
observed-property: normalized growth
Give the value as a plain number.

Observe how each entry below is paired with its result.
>  <molecule>
CC12CCC3C(CC=C4CC(O)CCC43C)C1CCC2=O (stereo not drawn)

>  <observed-property>
normalized growth

>  <measured-value>
1.02

$$$$
>  <molecule>
CCN(CC)CCOC(=O)C(Cc1cccc2ccccc12)CC1CCCO1 (stereo not drawn)

>  <observed-property>
normalized growth

>  <measured-value>
1

$$$$
>  <molecule>
C=CCN1CC[C@]23c4c5ccc(O)c4OC2C(=O)CC[C@@]3(O)[C@H]1C5 (stereo partly drawn)

>  <observed-property>
normalized growth

>  <measured-value>
0.973

$$$$
>  <molecule>
CN(Cc1cnc2nc(N)nc(N)c2n1)c1ccc(C(=O)NC(CCC(=O)O)C(=O)O)cc1 (stereo not drawn)

>  <observed-property>
normalized growth

>  <measured-value>
0.94

$$$$
>  <molecule>
O=C(O)c1cc(=O)c2c(OCC(O)COc3cccc4oc(C(=O)O)cc(=O)c34)cccc2o1

>  <observed-property>
normalized growth

>  <measured-value>
0.983

$$$$

Short answer for Cc1cccc(CN2CCN(C(c3ccccc3)c3ccc(Cl)cc3)CC2)c1 (stereo not drawn) : normalized growth was 0.964

Short answer for `O=C(O)c1cc(=O)c(O)c2c(O)c(O)ccc2c1` : normalized growth was 0.998

Short answer for Nc1nc2c(c(=O)[nH]1)N(C=O)C(CNc1ccc(C(=O)N[C@@H](CCC(=O)O)C(=O)O)cc1)CN2 (stereo partly drawn) : normalized growth was 0.984

---

experiment-summary: chemical genetic growth profiling, strain panel (AID 1159580);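 also: tested at 20 µM; growth read once vehicle control cultures reached saturation at 30 °C; 1 = growth at the plate median or of vehicle wells; lower values mean less growth of the strain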
experimental-setup: S. cerevisiae deletion strains, growth OD, locus YDL005C, strain med2
The whole screen tested about 5,500 compounds, of which about 2,000 (36%) were called active. About 18% were inconclusive and are not listed. No stated cut-off is given here; in the data, active means normalized growth mostly below about 0.91 (no sharp cut-off); inconclusive means no clear call, values can overlap the other calls; inactive means mostly above about 0.92. This is one part of the list.
The reply should be one of these categories: class 1 (active), class 0 (inactive)

>  <molecule>
COc1ccc(CN(CCN(C)C)c2ncccn2)cc1

>  <group-label>
class 0

$$$$
>  <molecule>
Nc1nccs1

>  <group-label>
class 0

$$$$
>  <molecule>
O=C1N=C(O)CN1/N=C\c1ccc(-c2ccc([N+](=O)[O-])cc2)o1

>  <group-label>
class 0

$$$$
>  <molecule>
COc1ccc(C=CC(=O)c2ccc(O)cc2O)cc1OC

>  <group-label>
class 0

$$$$
>  <molecule>
COc1ccc(/C=C/C(=O)O)cc1OC

>  <group-label>
class 0

$$$$
>  <molecule>
OC1CCCCC1N1CCC(c2ccccc2)CC1 (stereo not drawn)

>  <group-label>
class 0

$$$$
>  <molecule>
Nc1ccc(S(=O)(=O)Nc2nccs2)cc1

>  <group-label>
class 0

$$$$
>  <molecule>
COc1ccc(C[C@H](N)C(=O)N[C@@H]2[C@@H](CO)OC(n3cnc4c(N(C)C)ncnc43)[C@@H]2O)cc1 (stereo partly drawn)

>  <group-label>
class 0

$$$$

Could you kindly confirm the outcome this assay logged for N[C@@H](CCC(=O)N[C@@H](CCSC(CC(=O)O)C(=O)O)C(=O)NCC(=O)O)C(=O)O (stereo partly drawn) ? class 0

Could you kindly confirm the outcome this assay logged for `CCOC(N)=O` ? class 0

Could you kindly confirm the outcome this assay logged for `COc1cc(/C=C/C(=O)O)cc(OC)c1OC` ? class 0

Could you kindly confirm the outcome this assay logged for `COC(=O)[C@H]1[C@H]2C[C@@H]3c4[nH]c5cc(OC)ccc5c4CCN3C[C@H]2C[C@@H](OC(=O)c2cc(OC)c(OC)c(OC)c2)[C@@H]1OC` ? class 0

Could you kindly confirm the outcome this assay logged for `COS(C)(=O)=O` ? class 0

Could you kindly confirm the outcome this assay logged for `CC[C@]12CCCN3CCc4c(n(c5ccccc45)C(=O)C1)[C@@H]32` ? class 0

Could you kindly confirm the outcome this assay logged for CC1=CC(=O)CC(C)(C)C1(O)/C=C/C(C)=C\C(=O)O (stereo not drawn) ? class 0

Could you kindly confirm the outcome this assay logged for `COc1ccc(/C=C/C(=O)c2ccc(O)cc2O)cc1` ? class 1

Could you kindly confirm the outcome this assay logged for `O=C(O)P(=O)(O)O` ? class 0

Could you kindly confirm the outcome this assay logged for Cc1cccc(CN2CCN(C(c3ccccc3)c3ccc(Cl)cc3)CC2)c1 (stereo not drawn) ? class 0

---

experiment-summary: chemical genetic growth profiling, strain panel (AID 1159580);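 also: tested at 20 µM; growth read once vehicle control cultures reached saturation at 30 °C; 1 = growth at the plate median or of vehicle wells; lower values mean less growth of the strain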
experimental-setup: S. cerevisiae deletion strains, growth OD, locus YCL016C, strain dcc1, hits give low values
Hit rate of the full screen: of about 5,500 compounds, about 2,000 (36%) were called active. Inconclusive results (about 18%) are left out. Some of the results follow.
The entries below are paired with their reported normalized growth.

>  <compound>
O=C(NC(=O)c1c(F)cccc1F)Nc1cc(Cl)c(OC(F)(F)C(F)C(F)(F)F)cc1Cl (stereo not drawn)

>  <normalized growth>
0.988 (inactive)

$$$$

Short answer for `O=C(O)c1cc(=O)c(O)c2c(O)c(O)ccc2c1` : normalized growth was 1 (inactive)

Short answer for `Nc1ccc(S(=O)(=O)Nc2nccs2)cc1` : normalized growth was 1 (inactive)

---

The entries below are paired with their reported normalized growth.
experiment-summary: chemical genetic growth profiling, strain panel (AID 1159580);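 also: tested at 20 µM; growth read once vehicle control cultures reached saturation at 30 °C; 1 = growth at the plate median or of vehicle wells; lower values mean less growth of the strain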
experimental-setup: S. cerevisiae deletion strains, growth OD, locus YOR080W, strain dia2, hits give low values
About 2,000 (36%) of roughly 5,500 compounds were called active. Roughly 18% stayed inconclusive and do not appear here. Some of the results follow.
Give the value as a plain number.

Observe how each entry below is paired with its result.
>  <compound>
N[C@@H](CCC(=O)N[C@@H](CCSC(CC(=O)O)C(=O)O)C(=O)NCC(=O)O)C(=O)O (stereo partly specified)

>  <normalized growth>
0.982

$$$$
>  <compound>
CC(Cc1ccc(O)c(O)c1)(NN)C(=O)O (stereo unspecified)

>  <normalized growth>
1

$$$$
>  <compound>
O=C(O)c1cc(=O)c(O)c2c(O)c(O)ccc2c1

>  <normalized growth>
0.986

$$$$
>  <compound>
CC1(C)O[C@@H]2CC3C4CCC5=CC(=O)C=C[C@]5(C)C4[C@@H](O)C[C@]3(C)[C@]2(C(=O)CO)O1 (stereo partly specified)

>  <normalized growth>
1

$$$$
>  <compound>
S=c1[nH]c2ccccc2s1

>  <normalized growth>
0.992

$$$$
>  <compound>
CCn1cc(C(=O)O)c(=O)c2cnc(N3CCNCC3)nc21

>  <normalized growth>
1.02

$$$$

Short answer for COc1cc2c(cc1O)CC1c3c(cc(O)c(OC)c3-2)CCN1C (stereo unspecified) : normalized growth was 1.01

Short answer for `COc1ccc2c(c1O)-c1c(OC)c(OC)cc3c1[C@H](C2)N(C)CC3` : normalized growth was 0.999

Short answer for `CCOc1ccc2c(c1)C(C)=CC(C)(C)N2` : normalized growth was 0.989

Short answer for OC1CCCCC1N1CCC(c2ccccc2)CC1 (stereo unspecified) : normalized growth was 0.988

Short answer for `CC12CCC(CC1)C(C)(C)O2` : normalized growth was 0.975

Short answer for CC(=O)OCC(=O)[C@@]12OC(C)(C)O[C@@H]1CC1C3C[C@H](F)C4=CC(=O)C=C[C@]4(C)[C@@]3(F)[C@@H](O)C[C@@]12C (stereo partly specified) : normalized growth was 1.02

Short answer for `O=C1N=C(O)CN1/N=C\c1ccc(-c2ccc([N+](=O)[O-])cc2)o1` : normalized growth was 0.989

Short answer for Nc1c(Br)cc(Br)cc1CNC1CCC(O)CC1 (stereo unspecified) : normalized growth was 1.02

Short answer for `O=C1OCCN1/N=C\c1ccc([N+](=O)[O-])o1` : normalized growth was 0.986

Short answer for `O=C(O)c1cc(O)c(O)c(O)c1` : normalized growth was 1.01
